Values were extracted from the supplement of paper PMC7411054.

Provide the recorded lowest phenotypically active concentration for the entries that follow.
tested on: WPMY1-ACTB-RAB5A; assay: lowest phenotypically active concentration; higher = less potent; settings: treatment time: 24 h
Counter-ions that a name gives are not always drawn.
Return type: number; implicit unit µM.

q: Form entry - test system: WPMY1-ACTB-RAB5A; read-out: lowest phenotypically active concentration; molecule: Cn1cnc(N)c2ncnc1-2
a: 1

q: Record: CCN1CCN(C(c2cccnc2)c2cc(Cl)c3cccnc3c2O)CC1 (stereo not given)
a: 9

q: Record: CN(C)CC(O)Cn1c2ccc(Br)cc2c2cc(Br)ccc21 (stereo not given)
a: 3

q: Record: CN(C)CC(=O)Nc1ccc2[nH]c(=O)c3ccccc3c2c1 [PJ 34 hydrochloride]
a: 9

----------
system: HepG2-TP53BP1-CLTA; assay: lowest phenotypically active concentration; higher = less potent; conditions: treatment time: 24 h
property: lowest phenotypically active concentration

q: # lookup: lowest phenotypically active concentration of CC/C(=C(\CC)c1ccc(O)c(CN(CC)CC)c1)c1ccc(O)c(CN(CC)CC)c1
a: ≤ 0.3 µM

q: Record: CN1CCN(c2ccc(OC(F)(F)F)c(Nc3ncc4c(n3)-c3c(c(C(N)=O)nn3CCO)CC4)c2)CC1
a: ≤ 0.3 µM

q: Record: Cc1c2oc3c(C)ccc(C(=O)NC4C(=O)NC(C(C)C)C(=O)N5CCCC5C(=O)N(C)CC(=O)N(C)C(C(C)C)C(=O)OC4C)c3nc-2c(C(=O)NC2C(=O)NC(C(C)C)C(=O)N3CCCC3C(=O)N(C)CC(=O)N(C)C(C(C)C)C(=O)OC2C)c(N)c1=O (stereo not drawn)
a: ≤ 0.3 µM

----------
tested on: WPMY1-TP53BP1-CLTA; test: phenotypically active (imaging signature differs from DMSO and reproducible) at any of 0.3-9 uM (binary (1 = active, 0 = inactive)); higher = active; conditions: treatment time: 24 h
Where a name gives a salt, the structure may show the parent alone.
# valid calls are active, inactive; nothing else

q: How was CCCc1nc2c(C)cc(-c3nc4ccccc4n3C)cc2n1Cc1ccc(-c2ccccc2C(=O)O)cc1 classified in this test?
a: inactive

q: Record: CC[C@@H]1C(=O)OC[C@@H]1Cc1cncn1C [Pilocarpine hydrochloride]
a: inactive

q: Record: O=C(O)c1ccc(O)c2ncccc12
a: inactive

q: Record: COc1cc2nc(N3CCCN(C)CC3)nc(NC3CCN(Cc4ccccc4)CC3)c2cc1OC
a: active

q: Record: CCCCCOC(=O)Nc1nc(=O)n([C@@H]2O[C@H](C)[C@@H](O)[C@H]2O)cc1F
a: inactive

q: Record: NC12CC3CC(CC(C3)C1)C2
a: inactive

q: Record: CC(CCc1ccccc1)NCC(O)c1ccc(O)c(C(N)=O)c1 (stereo unspecified)
a: inactive

q: Record: CC1(C)CC(=O)c2c(S(C)(=O)=O)sc(Cl)c2C1
a: inactive

q: Record: CCOC(=O)C(C)(C)Oc1ccc(Cl)cc1 [Clofibrate]
a: inactive

q: Record: CC1=NN(c2ccc(C(=O)O)cc2)C(=O)/C1=C\c1ccc(-c2cc(C)c(C)cc2[N+](=O)[O-])o1
a: inactive

q: Record: CC1CNCCN1S(=O)(=O)c1cccc2cnccc12 (stereo unspecified) [H-7 dihydrochloride]
a: inactive

q: Record: C/N=C(\NC#N)NCCSCc1nc[nH]c1C
a: inactive

q: Record: CNC(=O)c1cc(Oc2ccc(NC(=O)Nc3ccc(Cl)c(C(F)(F)F)c3)c(F)c2)ccn1
a: active

q: Record: O=C(Nc1c[nH]nc1-c1nc2cc(CN3CCOCC3)ccc2[nH]1)NC1CC1
a: active

q: Record: Nc1ccn([C@@H]2O[C@H](CO)[C@@H](O)[C@@H]2O)c(=O)n1
a: active

q: Record: COc1cc2c(Nc3ccc(Br)cc3F)ncnc2cc1OCC1CCN(C)CC1
a: active

q: Record: C[C@H]1[C@H](C)CC[C@]2(C(=O)O[C@@H]3O[C@H](CO[C@@H]4O[C@H](CO)[C@@H](O[C@@H]5O[C@@H](C)[C@H](O)[C@@H](O)[C@H]5O)[C@H](O)[C@H]4O)[C@@H](O)[C@H](O)[C@H]3O)CC[C@]3(C)C(=CC[C@@H]4[C@@]5(C)C[C@@H](O)[C@H](O)[C@@](C)(CO)[C@@H]5CC[C@]43C)[C@H]12 [Asiaticoside]
a: inactive

q: Record: Cc1noc(C)c1-c1cc(O)cc(C(O)c2ccccc2)c1 (stereo unspecified)
a: active

q: Record: O=C(O)CCc1ccccc1 [Hydrocinnamic acid]
a: inactive

q: Record: COc1ccc(-c2noc(CSc3nnc(C)n3-c3ccc(OC)cc3)n2)cc1
a: inactive

q: Record: C[C@H]1O[C@H](O[C@H]2[C@H](O)[C@@H](O)[C@@H](O[C@H]3[C@H](O)[C@@H](O)[C@H](O)O[C@@H]3CO)O[C@@H]2CO)[C@H](O)[C@@H](O)[C@@H]1N[C@H]1C=C(CO)[C@@H](O)[C@H](O)[C@H]1O
a: inactive

q: Record: O=C(O)CCCc1ccccc1 [Sodium 4-Phenylbutyrate]
a: inactive

q: Record: CCCC(=O)O [Sodium butyrate]
a: inactive

q: Record: O=C(Cn1ccnc1[N+](=O)[O-])NCc1ccccc1
a: inactive

q: Record: CCN1/C(=C/C(C)=O)Sc2ccc(O)cc21
a: active

q: Record: CNC(=O)c1ccccc1Sc1ccc2c(/C=C/c3ccccn3)n[nH]c2c1
a: active

q: Record: CC1=CC(=O)C2=C(C)CC[C@@H]3[C@H](OC(=O)[C@H]3C)[C@@H]12
a: inactive

q: Record: COc1cc(N2CCOCC2)ccc1Nc1ncc(Cl)c(Nc2ccccc2NS(C)(=O)=O)n1
a: active

q: Record: CN1CCN(C(=O)CN[C@H]2C[C@@H]2c2ccc(OCc3ccccc3)cc2)CC1 [RN 1 dihydrochloride]
a: active

q: Record: Cc1ccnn1-c1ccc(C(=O)N2CCN(S(=O)(=O)c3ccc(Cl)c(C(F)(F)F)c3)CC2)cc1
a: inactive

q: Record: CC(C)(C)NS(=O)(=O)c1cncc(-c2cc(F)c3nc(N)nn3c2)c1
a: inactive
